# Measurement notes: qHTS Screen of the MIPE 4.0 Collection Against Ewings Sarcoma (TC32) (AID 1259256); note: nearly all actives have a fitted effect of over 45% in size
# Condition label: TC32 Ewing sarcoma viability, CellTiter-Glo, 48 h; series mostly up to 45.8 µM
Inconclusive results are not listed. The source made the active and inactive calls. Calls come from the whole dose curve; as a rule, active = well fitted inhibition curve with a large enough effect; inconclusive = small, poorly fitted or top-dose-only effect; inactive = no such curve, though single readings can be large or run the other way.
I would appreciate it if you answered using one of these outcomes: 1 = active, 0 = inactive

Below, 3 compounds whose answers are already recorded.
- Compound: "CC(NC(C)(C)C)C(=O)c1cccc(Cl)c1 (centres undefined)"
  Class name: 0
- Compound: "C[C@](O)(CS(=O)(=O)c1ccc(F)cc1)C(=O)Nc1ccc(C#N)c(C(F)(F)F)c1"
  Class name: 1
- Compound: "C[C@]12CC[C@@H]3c4ccc(OC(=O)N(CCCl)CCCl)cc4CC[C@H]3[C@@H]1CC[C@@H]2OP(=O)(O)O"
  Class name: 0

Task: Any idea what this test logged for CN1C(=O)COc2c(C(=O)NC3CN4CCC3CC4)cc(Cl)cc21 (centres undefined) ?
Output: 0

Every entry's value here was drawn from PubChem BioAssay (NCATS).
